# targetUnderTest: Tyrosine-protein kinase ZAP-70 (Homo sapiens);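 further: values are mean percent inhibition of ZAP-70 kinase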
# conditionContext: at 0.1 µM
testReadout: inhibition (%)
Answers are plain numbers, in %.

Use the examples below as a reference point.
{"columns": ["smilesStr", "inhibition / %"],
 "data": [
  ["FC(F)(F)CNc1nccc(-c2cnn3ncccc23)n1", 0.71],
  ["CN1CCC(n2cnc(-c3ccc(F)cc3)c2-c2ccnc(NCCO)n2)CC1", 2.9],
  ["CC(C)c1ccc(-c2cc(-c3c[nH]nc3-c3ccccn3)ccn2)cc1", 1.32],
  ["OCCCNc1nccc(-c2c(-c3ccc(F)cc3)nn3cc(C(F)(F)F)ccc23)n1", 2.54],
  ["CNC(=O)c1ncccc1Nc1nc(Nc2cc3c(cc2OC)CCCN3C(=O)CN(C)C)nc2[nH]ccc12", -0.5],
  ["Cc1cc(O)cc(C)c1/C=C/c1cncc(C(=O)OC(C)(C)C)c1", 1.34]
]}

I need inhibition for every entry listed below, if you could help.
1. Cc1ccc(-c2cc3c(NC(=O)C4CC4)ncnc3o2)cc1
2. COc1cccc(-n2ncc3c(N/N=C/c4ccc(C(=O)NCCN(C)C)cc4)ncnc32)c1
3. NC(=O)c1ccc2c(-c3ccnc(NCCCO)n3)c(-c3ccc(F)cc3)nn2c1
4. O=C(O[C@H]1CN[C@H](C#Cc2cc3ncnc(Nc4ccc5c(ccn5Cc5cc(F)ccc5F)c4)c3s2)C1)N1CCOCC1
5. CS(=O)(=O)Nc1ccc(-c2ccc3c(NC(=O)C4CC4)n[nH]c3c2)cc1
6. COc1cc2c(cc1Nc1nc(Nc3cccc(F)c3C(N)=O)c3cc[nH]c3n1)N(C(=O)CN1CCN(C(C)C)CC1)CC2
7. O=C1Nc2ccccc2/C1=C1\CCc2cc(O)ccc21

Reply:
1.07
-2.3
1.7
0.89
1.11
2.59
3.48

Provide inhibition values for the following items, in order.
1. CN(c1ccc(NC(=O)NCCN2CCOCC2)cc1)c1ccnc(Nc2ccc(CS(C)(=O)=O)cc2)n1
2. CS(=O)(=O)CCNCc1ccoc1-c1ccc2ncnc(Nc3ccc(OCc4ccccc4)cc3)c2c1
3. c1ccc(-c2n[nH]cc2-c2ccnc(-c3ccc(OCCn4ccnc4)cc3)c2)nc1
4. c1cnn2ncc(-c3ccnc(NCCCN4CCOCC4)n3)c2c1

Reply:
1. 0.58
2. -0.82
3. 2.15
4. 2.13

---

# targetUnderTest: Non-receptor tyrosine-protein kinase TYK2 (Homo sapiens) (UniProt P29597);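 further: values are mean percent inhibition of TYK2 kinase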
# Sequence (P29597 whole entry): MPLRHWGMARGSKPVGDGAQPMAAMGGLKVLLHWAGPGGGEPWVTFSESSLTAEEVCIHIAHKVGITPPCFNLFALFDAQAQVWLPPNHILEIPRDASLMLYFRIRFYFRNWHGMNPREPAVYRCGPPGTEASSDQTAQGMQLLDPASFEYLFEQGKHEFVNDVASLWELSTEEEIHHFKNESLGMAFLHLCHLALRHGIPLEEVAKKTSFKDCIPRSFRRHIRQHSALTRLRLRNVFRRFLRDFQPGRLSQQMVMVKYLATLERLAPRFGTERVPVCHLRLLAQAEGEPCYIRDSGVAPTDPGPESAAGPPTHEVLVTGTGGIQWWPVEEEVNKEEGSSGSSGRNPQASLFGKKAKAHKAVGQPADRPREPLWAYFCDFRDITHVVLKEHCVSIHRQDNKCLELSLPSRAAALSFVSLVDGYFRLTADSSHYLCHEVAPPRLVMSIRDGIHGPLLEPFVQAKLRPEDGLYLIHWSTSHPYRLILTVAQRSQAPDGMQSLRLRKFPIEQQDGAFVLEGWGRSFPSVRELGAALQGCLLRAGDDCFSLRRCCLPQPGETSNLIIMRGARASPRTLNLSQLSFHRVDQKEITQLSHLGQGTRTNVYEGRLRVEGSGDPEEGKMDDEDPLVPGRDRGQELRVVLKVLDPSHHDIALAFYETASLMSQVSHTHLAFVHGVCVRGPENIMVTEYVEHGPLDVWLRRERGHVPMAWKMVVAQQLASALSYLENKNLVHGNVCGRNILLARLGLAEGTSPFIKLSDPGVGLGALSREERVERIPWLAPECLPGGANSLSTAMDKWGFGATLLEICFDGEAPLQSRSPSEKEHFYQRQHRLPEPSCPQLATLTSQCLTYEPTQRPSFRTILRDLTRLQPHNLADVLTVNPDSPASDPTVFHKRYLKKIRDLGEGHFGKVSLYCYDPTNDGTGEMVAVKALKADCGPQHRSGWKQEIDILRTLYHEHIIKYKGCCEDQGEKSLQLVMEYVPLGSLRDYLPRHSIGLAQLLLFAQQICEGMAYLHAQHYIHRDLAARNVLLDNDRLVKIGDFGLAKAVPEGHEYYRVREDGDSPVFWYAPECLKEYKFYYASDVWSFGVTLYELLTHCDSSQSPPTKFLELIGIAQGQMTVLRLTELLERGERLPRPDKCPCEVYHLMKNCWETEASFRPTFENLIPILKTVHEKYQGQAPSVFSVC
# conditionContext: at 1 µM
Exercise: for every item that follows, state its recorded inhibition.
Answers are plain numbers, in %.

{"columns": ["compound", "testReadout", "unitAnnotation", "numericValue"],
 "data": [
  ["CCOc1ccc2c(-c3ccnc(Nc4cc(OC)cc(C(F)(F)F)c4)n3)cnn2n1", "inhibition", "%", 1.53],
  ["NS(=O)(=O)c1ccc(N/N=C2\\C(=O)Nc3cccc(CCc4ccncc4)c32)cc1", "inhibition", "%", -1.59],
  ["CCCNc1cccc(-n2ncc3c(N/N=C/c4ccncc4)ncnc32)c1", "inhibition", "%", 4.3],
  ["O=C1Nc2ccccc2/C1=C1\\CCc2cc(O)ccc21", "inhibition", "%", 6.88],
  ["CNC(=O)c1ncccc1Nc1nc(Nc2cc3c(cc2OC)CCCN3C(=O)CN(C)C)nc2[nH]ccc12", "inhibition", "%", -1.39],
  ["COc1c(C(N)=O)cc(-c2ccc(Cl)cc2)cc1-c1ccc(S(N)(=O)=O)cc1", "inhibition", "%", -6.53]
]}

Consider the following items and state reported inhibition for each.
1. CN1CCC(n2cnc(-c3ccc(F)cc3)c2-c2ccnc(NCCO)n2)CC1
2. COc1cc(N2CCN(C(C)C)CC2)ccc1Nc1nc(Nc2cccc(F)c2C(=O)O)c2cc[nH]c2n1
3. COc1ccc(-c2nn3ncccc3c2-c2ccnc(Nc3ccc(F)c(F)c3)n2)cc1
4. COc1ccccc1-c1cc(/C=C2\C(=O)Nc3ncc(Br)cc32)cc(Br)c1O
5. COC(=O)Nc1nc2cc(Oc3ccc(NC(=O)Nc4ccccc4)cc3)ccc2[nH]1
6. N#Cc1cccc(Nc2ncc(-c3ccccc3)o2)c1
7. CC1=C(C(=O)Nc2ccc3[nH]ncc3c2)C(c2ccc(F)cc2)N=C(c2ccc(C(F)(F)F)nc2)N1 (stereo not given)
8. NS(=O)(=O)c1cccc(N/C=C2\C(=O)Nc3ccccc32)c1

Reply:
1. -4.71
2. -2.8
3. -1.25
4. -1.22
5. -1.49
6. -1.92
7. -2.96
8. -1.95

Respectfully, I request inhibition for each entry included below.
1. COc1ccc(Nc2ncc(-c3ccccc3)o2)cc1OC
2. OCCCNc1nccc(-c2c(-c3ccc(F)cc3)nn3cc(C(F)(F)F)ccc23)n1

Reply:
5.03
-1.77

---

# targetUnderTest: Non-receptor tyrosine-protein kinase TNK1 (Homo sapiens);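 further: values are averaged percent inhibition of TNK1, compounds from the GSK published kinase inhibitor set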
# conditionContext: at 1 µM
testReadout: inhibition (%)
Numbers only, in %.

{"columns": ["smilesStr", "inhibition [%]"],
 "data": [
  ["CNC(=O)c1ncccc1Nc1nc(Nc2cc3c(cc2OC)CCCN3C(=O)CN(C)C)nc2[nH]ccc12", 73],
  ["COc1cccc(Nc2nccc(-c3cnn4ncccc34)n2)c1", 65.9]
]}

I would be grateful if you could provide inhibition for each of the following entries.
1. COc1cc(N2CCN(C(C)C)CC2)ccc1Nc1nc(Nc2cccc(F)c2C(=O)O)c2cc[nH]c2n1
2. COc1cc(Nc2ncc(-c3ccccc3)o2)cc(OC)c1
3. COc1ccccc1-c1cc(/C=C2\C(=O)Nc3ncc(Br)cc32)cc(Br)c1O

Reply:
1. 53.4
2. 31.1
3. 80.4

Below is a list of compounds. For each, state its recorded inhibition.
1. CC(C)c1ccc(-c2cc(-c3c[nH]nc3-c3ccccn3)ccn2)cc1
2. CCCNc1cccc(-n2ncc3c(N/N=C/c4ccncc4)ncnc32)c1
3. Fc1ccc(Nc2nccc(-c3c(-c4ccc(C(F)(F)F)cc4)nn4ncccc34)n2)cc1F
4. CN1CCC(n2cnc(-c3ccc(F)cc3)c2-c2ccnc(NCCO)n2)CC1

Reply:
[-0.32, 48, -0.46, 10.8]

---

What inhibition was measured for each of the following?
# targetUnderTest: Phosphatidylinositol 4,5-bisphosphate 3-kinase catalytic subunit delta isoform (Homo sapiens);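 further: reported values are mean percent inhibition of PI3K-delta activity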
# Sequence (whole entry): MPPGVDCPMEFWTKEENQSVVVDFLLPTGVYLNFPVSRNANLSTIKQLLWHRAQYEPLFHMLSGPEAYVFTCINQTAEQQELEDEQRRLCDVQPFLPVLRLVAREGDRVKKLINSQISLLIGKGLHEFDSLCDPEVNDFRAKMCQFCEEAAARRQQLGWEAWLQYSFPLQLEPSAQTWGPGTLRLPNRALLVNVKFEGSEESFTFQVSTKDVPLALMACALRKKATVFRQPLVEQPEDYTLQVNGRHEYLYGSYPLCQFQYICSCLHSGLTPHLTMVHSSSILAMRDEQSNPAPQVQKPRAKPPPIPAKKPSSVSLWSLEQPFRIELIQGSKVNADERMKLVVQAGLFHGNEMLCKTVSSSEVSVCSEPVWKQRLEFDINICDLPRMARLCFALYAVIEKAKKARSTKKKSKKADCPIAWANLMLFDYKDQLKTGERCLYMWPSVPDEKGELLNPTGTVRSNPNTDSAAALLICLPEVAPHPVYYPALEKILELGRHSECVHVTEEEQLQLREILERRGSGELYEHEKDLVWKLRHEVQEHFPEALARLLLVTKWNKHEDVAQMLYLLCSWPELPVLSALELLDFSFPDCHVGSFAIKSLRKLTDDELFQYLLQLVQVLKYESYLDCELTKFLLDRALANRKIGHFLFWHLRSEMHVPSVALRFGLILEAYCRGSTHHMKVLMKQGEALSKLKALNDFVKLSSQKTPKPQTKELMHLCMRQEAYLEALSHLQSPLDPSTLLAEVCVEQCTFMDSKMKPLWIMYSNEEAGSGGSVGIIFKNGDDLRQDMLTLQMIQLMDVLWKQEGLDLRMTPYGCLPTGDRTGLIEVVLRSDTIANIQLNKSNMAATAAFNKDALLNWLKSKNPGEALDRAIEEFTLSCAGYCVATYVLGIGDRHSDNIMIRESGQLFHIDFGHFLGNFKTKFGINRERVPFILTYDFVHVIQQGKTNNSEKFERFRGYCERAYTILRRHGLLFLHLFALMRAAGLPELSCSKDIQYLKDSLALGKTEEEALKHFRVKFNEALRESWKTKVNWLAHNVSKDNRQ
# conditionContext: at 1 µM
Numbers only, in %.

{"columns": ["smilesStr", "inhibition, %"],
 "data": [
  ["CS(=O)(=O)CCNCc1ccc(-c2ccc3ncnc(Nc4ccc(OCc5cccc(C(F)(F)F)c5)cc4)c3c2)o1", 1.81],
  ["O=C(Nc1n[nH]c2nnc(-c3cccnc3)cc12)C1CC1", 1.67],
  ["NS(=O)(=O)c1ccc(N/N=C2\\C(=O)Nc3cccc(CCc4ccncc4)c32)cc1", 3.61],
  ["FC(F)(F)CNc1nccc(-c2cnn3ncccc23)n1", 2.05]
]}

Read the next record carefully.
Just so you know, measured inhibition for `CC(C)c1ccc(-c2cc(-c3c[nH]nc3-c3ccccn3)ccn2)cc1` came out at 4.14
